Measured melting point of individual entries
Where a name gives a salt, the structure may show the parent alone.
Value and unit, in that order.

// solved cases for melting point follow
compound	melting point
COc1ccc2nc(OC)c(C(c3ccccc3)C3(O)CCNC(Cc4ccccc4)C3)cc2c1 (stereo not drawn) (as salt: fumarate)	135 °C
COc1nc2ccc(Br)cc2cc1C(c1ccc(Cl)cc1)C1(O)CCNC(Cc2ccccc2)C1 (stereo not drawn) [Compound 33]	177 °C

Please look up its melting point: COc1nc2ccc(Br)cc2cc1C(c1ccccc1)C1(O)CCNC(c2ccc(F)cc2C)C1 (stereo not drawn) [Compound 250] 125 °C

----------
Structures can show the parent of a compound that is named as a salt.
List of melting point values.

Solved entries (count: 2):
compound	value.reported
O=c1[nH]c2ccc(Cl)cc2cc1C(c1ccc(Cl)cc1)C1(O)CCNC(Cc2ccccc2)C1 (stereo not drawn) (as salt: hydrochloride)	> 250 °C
COc1nc2ccc(Cl)cc2cc1C(c1ccc(Cl)cc1)C1(O)CCNC(Cc2ccc(F)cc2)C1 (stereo not drawn) (as salt: fumarate) [Compound 347]	148 to 150 °C

Could you now consider this next compound?
For the compound shown here, Cc1cc(F)ccc1C1CC(O)(C(c2ccc(Cl)cc2)c2cc3cc(S(C)(=O)=O)ccc3[nH]c2=O)CCN1 (stereo not drawn) (as salt: hydrochloride) , give the reported melting point. > 250 °C

----------
Quick list: melting point per entry.
Where a name gives a salt, the structure may show the parent alone.

molecule	value.reported
O=c1[nH]c2ccc(Br)cc2cc1[C@@H](c1ccc(Cl)cc1)[C@]1(O)CCNC(Cc2ccccc2)C1 (stereo partly drawn) (as salt: hydrochloride) [Compound 121]	> 260 °C
COc1nc2ccccc2cc1C(c1ccccc1)C1(O)CCNC(c2ccc(F)cc2C)C1 (stereo not drawn) (as salt: fumarate) [Compound 416]	160 to 162 °C

# context switch: different molecule, same melting point
What measured melting point goes with O=c1[nH]c2ccc(Br)cc2cc1C(c1ccc(Cl)cc1)C1(O)CCNCC1Cc1cccc(F)c1 (stereo not drawn) (as salt: hydrochloride) [Compound 229] ? > 250 °C

----------
Where a name gives a salt, the structure may show the parent alone.
# melting point listing for each entry below

molecule	value.reported
CS(=O)(=O)c1ccc2[nH]c(=O)c(C(c3cccc(Cl)c3)C3(O)CCNC(Cc4ccc(F)cc4F)C3)cc2c1 (stereo not shown) (as salt: hydrochloride) [Compound 308]	> 260 °C
C=CCC1CNCCC1(O)C(c1ccc(Cl)cc1)c1cc2cc(Br)ccc2nc1OC (stereo not shown) [Compound 392]	162 to 164 °C
CSc1ccc2[nH]c(=O)c(C(c3ccc(Cl)cc3)C3(O)CCNC(c4ccccc4)C3)cc2c1 (stereo not shown) (as salt: hydrochloride) [Compound 230]	> 250 °C

For COc1nc2ccc(F)cc2cc1C(c1ccc(S(C)(=O)=O)cc1)C1(O)CCNC(c2ccc(F)cc2C)C1 (stereo not shown) (as salt: fumarate) [Compound 418] , what is its reported melting point? 164 to 166 °C
